Experimental Details: Half life in mouse liver microsomes at 1 uM incubated for 15 mins prior to beta-NADPH addition by LC-MS/MS analysis
Format: ADME, Microsome
Stated Conditions: microsomes, 0.25 h, 1 µM
Quantity Kind: t1/2

The following compounds have reported results that may help.
{"columns": ["Given Smiles", "t1/2"],
 "data": [
  ["CCn1c(=O)/c(=C2\\Sc3ccccc3N2C)s/c1=C\\c1scc[n+]1CC.[Cl-]", "ND(Insoluble)"],
  ["CCn1c(=O)/c(=C2\\Sc3cc(Cl)ccc3N2C)s/c1=C\\c1scc[n+]1Cc1ccccc1.[Cl-]", "37 min"],
  ["CCn1c(=O)/c(=C2\\Sc3c(Cl)cccc3N2C)s/c1=C\\c1scc[n+]1Cc1ccccc1.[Cl-]", "ND(Insoluble)"],
  ["CCn1c(=O)/c(=C2\\Sc3ccccc3N2C)s/c1=C\\c1scc[n+]1C.[Cl-]", "ND(Insoluble)"],
  ["CCn1c(=O)/c(=C2\\Sc3ccccc3N2C)s/c1=C\\c1cccc[n+]1CCO.[Cl-]", "ND(Insoluble)"],
  ["CCn1c(=O)/c(=C2\\Sc3ccc(Cl)cc3N2C)s/c1=C\\c1cccc[n+]1C.[Cl-]", "ND(Insoluble)"],
  ["CCn1c(=O)/c(=C2\\Sc3cccc(Cl)c3N2C)s/c1=C\\c1cccc[n+]1C.[Cl-]", "ND(Insoluble)"],
  ["CCn1c(=O)/c(=C2\\Sc3c(Cl)cccc3N2C)s/c1=C\\c1cccc[n+]1C.[Cl-]", "ND(Insoluble)"]
]}

Prompt line: # lookup: t1/2 of CCn1c(=O)/c(=C2\Sc3ccc(F)cc3N2C)s/c1=C\c1cccc[n+]1C.[Cl-]
Response line: 23 min

Prompt line: What do you have for CCn1c(=O)/c(=C2\Sc3ccc(F)cc3N2C)s/c1=C\c1cccc[n+]1CC.[Cl-] ?
Response line: ND(Insoluble)

Prompt line: Note, next up: CCn1c(=O)/c(=C2\Sc3cccc(F)c3N2C)s/c1=C\c1cccc[n+]1C.[Cl-]
Response line: 15 min
